Values compiled from PubChem BioAssay (NCI).

System: IGROV1 ovarian
ASSAY_PROTOCOL: NCI tumour cell line growth inhibition, 48 h
READOUT_TYPE: TGI (µM)
State just the number; it will be interpreted in µM.

In the examples that follow, each entry is paired with its recorded TGI.
{"COMPOUND": "CCN(CC)c1ccc2cc3ccc(=[N+](CC)CC)cc-3oc2c1", "TGI [µM]": 8.36}
{"COMPOUND": "CCOC(=O)C(Br)(C(N)=O)C1(O)OC(c2ccccc2)=C(Br)C1=O (stereo not given)", "TGI [µM]": 43.5}
{"COMPOUND": "O=C1OCC(C#Cc2ccccc2)=C1Br", "TGI [µM]": 33.5}
{"COMPOUND": "C#C[C@@]1(O)[C@@H](CO)O[C@@H](n2cc(Br)c3c(N)ncnc32)[C@@H]1O", "TGI [µM]": 0.485}

# evaluate next
Ask: Record request: TGI value, item "COc1ccc2c(c1)O/C(=C\c1ncc([N+](=O)[O-])n1C)C2=O"
Result: 9.86

====

Tested on: HOP-62 NSCLC
ASSAY_PROTOCOL: NCI tumour cell line growth inhibition, 48 h
READOUT_TYPE: TGI

{"COMPOUND": "Nc1ncnc2c1ccn2COC(CO)CO", "TGI": "> 100 µM"}
{"COMPOUND": "COc1ccc(C2=C(c3cn(C)c4ccccc34)C(=O)OC2)cc1OC", "TGI": "> 100 µM"}
{"COMPOUND": "COc1cc([C@@H]2c3cc4c(c(O[C@@H]5O[C@H]6CO[C@@H](C)O[C@H]6[C@H](O)[C@@H]5O)c3C[C@H]3COC(=O)[C@@H]32)OCO4)cc(OC)c1O", "TGI": "> 100 µM"}
{"COMPOUND": "O=C(CC1(O)C(=O)Nc2ccccc21)c1ccc2ccccc2c1 (stereo not given)", "TGI": "> 100 µM"}

# evaluate next
Ask: Record request: TGI value, item "COc1ccccc1/C=C1\C(=O)N(C(=O)c2ccc(NC(C)=O)cc2)N=C1C"
Result: > 100 µM

====

Test system: HT29 colon
ASSAY_PROTOCOL: NCI tumour cell line growth inhibition, 48 h
The label depends only on TGI: YES if it is at least 20 µM, NO if it is smaller.

Examples with answers:
{"COMPOUND": "COc1ccc2cc1Oc1ccc(cc1)CC1c3cc(OC)c(cc3CCN1C)Oc1c(OC)c(OC)cc3c1C(C2)N(C)CC3 (centres undefined)", "ANSWER_LABEL": "NO"}
{"COMPOUND": "CCn1nc(-c2ccc(C(=O)OC)cc2)nc2c(=O)n(C)c(=O)nc1-2", "ANSWER_LABEL": "NO"}
{"COMPOUND": "Fc1cccc(F)c1C1SCc2nc3cc4ccccc4cc3n21 (centres undefined)", "ANSWER_LABEL": "YES"}
{"COMPOUND": "C=CCN(N=O)C(=O)NCCCC(NC(C)=O)C(=O)NCc1ccccc1 (centres undefined)", "ANSWER_LABEL": "YES"}
{"COMPOUND": "COc1cc([C@@H]2c3cc4c(c(O[C@@H]5O[C@H]6CO[C@@H](C)O[C@H]6[C@H](O)[C@@H]5O)c3C[C@H]3COC(=O)[C@@H]32)OCO4)cc(OC)c1O", "ANSWER_LABEL": "YES"}

Ask: Check this compound for TGI at or above 20 µM: "O=[N+]([O-])c1cccc2nc3ccccc3c(NCCN(CCO)CCO)c12"
Result: NO

Ask: What do you have for CC(C)CC(NC(=O)C(Cc1ccccc1)NC(=O)[C@H]1CC[C@H](NC(=O)C(Cc2ccc(OC(C)(C)C)cc2)NC(=O)OC(C)(C)C)C1)C(N)=O (some centres undefined) ?
Result: YES

Ask: What do you have for N#Cc1cnc(=O)n(C2CC(O)C(CO)O2)c1 (centres undefined) ?
Result: YES
